Source: PubChem BioAssay (NCATS)

# tested on: Rap guanine nucleotide exchange factor 3 (Homo sapiens)
# method summary: Confirmatory qHTS for antagonist of cAMP-regulated guanine nucleotide exchange factor 3 (EPAC1) (AID 1645880); note: nearly all actives have a fitted effect of over 55% in size
# condition set: EPAC1 Rap1B-BODIPY-GDP exchange, fluorescence
Records with an inconclusive call do not appear. Activity calls are given as the source filed them. Calls come from the whole dose curve; as a rule, active = well fitted inhibition curve with a large enough effect; inconclusive = small, poorly fitted or top-dose-only effect; inactive = no such curve, though single readings can be large or run the other way.
Write down the outcome that applies. Available outcomes: true for active, false for inactive

compound: COc1cc(C(c2c(C(=O)O)[nH]c3ccccc23)c2c(C(=O)O)[nH]c3ccccc23)ccc1OCc1ccccc1
qualitative label: true

compound: CCOC(=O)c1c(NC(=O)/C=C/C(=O)O)sc(C)c1-c1ccc(C(C)(C)C)cc1
qualitative label: true

compound: COc1ccc(N=Cc2sc(O)c3ccccc23)cc1
qualitative label: false

compound: O=C(c1ccccc1)C(c1ccccc1)c1ccccc1
qualitative label: false

What outcome does the record of this test show for Cc1ccc2oc(C(=O)N(Cc3ccc(N(C)C)cc3)CC3CCCO3)c(C)c2c1 (stereo unspecified) ?
false

* * *

# tested on: Rap guanine nucleotide exchange factor 3 (Homo sapiens)
# method summary: Confirmatory qHTS for antagonist of cAMP-regulated guanine nucleotide exchange factor 3 (EPAC1) (AID 1645880); note: nearly all actives have a fitted effect of over 55% in size
# condition set: EPAC1 Rap1B-BODIPY-GDP exchange, fluorescence
Records with an inconclusive call do not appear. Calls of active or inactive are those of the source. Calls follow the shape of the dose curve; as a rule, active = well fitted inhibition curve with a large enough effect; inconclusive = small, poorly fitted or top-dose-only effect; inactive = no such curve, though single readings can be large or run the other way.
Write down the outcome that applies. Available outcomes: active, inactive

compound: O=C(c1ccco1)N1CCN(c2cc(=O)n(C3CCCCC3)c(=O)[nH]2)CC1
tested on: Rap guanine nucleotide exchange factor 3 (Homo sapiens)
qualitative label: inactive

compound: Cc1ccc(C)c(Oc2nnnn2-c2ccccc2)c1
tested on: Rap guanine nucleotide exchange factor 3 (Homo sapiens)
qualitative label: inactive

compound: CC1CC1c1ccc(/C=C(\C#N)C(=O)Nc2cc(Cl)ccc2Cl)o1 (stereo not drawn)
tested on: Rap guanine nucleotide exchange factor 3 (Homo sapiens)
qualitative label: inactive

What outcome does the record of this test show for CN(C)c1ccccc1-c1cc(NC=O)c2ncc(-c3cccc(C(F)(F)F)c3)n2c1 ?
active

What outcome does the record of this test show for Cc1ccc(C)c(N2CCN(C(=O)CCCn3c(=O)c4cccn4c4cccnc43)CC2)c1 ?
inactive

* * *

# tested on: Rap guanine nucleotide exchange factor 3 (Homo sapiens)
# method summary: Counterscreen qHTS for agonist of cAMP-regulated guanine nucleotide exchange factor 3 (EPAC1) (AID 1645889); note: % of control where 0% means no effect; nearly all actives have a fitted effect of over 40% in size
# condition set: EPAC1 Rap1B-BODIPY-GDP exchange, fluorescence; series mostly up to 154 µM
Results filed as inconclusive are left out. Calls of active or inactive are those of the source. The call rests on the fitted dose curve; in most records, active means well fitted activation curve with a large enough effect; inconclusive means small, poorly fitted or top-dose-only effect, or another doubt; inactive means no such curve, though single readings can be large or run the other way.
parameter measured: activation

A selection of reference data follows.
compound: Cc1ccc(/C(O)=C2/C(=O)C(=O)OC2c2ccc(Cl)cc2)cc1 (configuration not stated)
activation: 5.06% [at 30.8 µM] (inactive)
//
compound: Cc1cc(-c2ccc(/C=N/n3cnnc3)o2)ccc1Cl
activation: inactive
//
compound: Oc1ccc2ccccc2c1C=Nc1ccc(Cl)cn1
activation: inactive
//
compound: CCC1SC2=NC(C)=C(C(=O)OC)C(c3cccs3)N2C1=O (configuration not stated)
activation: 5.87% [at 30.8 µM] (inactive)
//
compound: CCOc1ccc(NC2c3ccccc3C(=O)N2Cc2ccco2)cc1 (configuration not stated)
activation: inactive
//
compound: N#Cc1c(-c2cccs2)nc(SCC(=O)c2ccc(Br)cc2)[nH]c1=O
activation: 12.5% [at 30.8 µM] (inactive)

The compound listed as Cc1ccc(C(=O)N2CCN(c3ccccc3)CC2)cc1S(=O)(=O)N1CCOCC1 shows activation equal to inactive

The compound listed as COC(=O)c1cc(NC(=O)CC2SCCNC2=O)cc(C(=O)OC)c1 (configuration not stated) shows activation equal to 0.776% [at 30.8 µM] (inactive)

The compound listed as N=c1c(S(=O)(=O)c2ccc(Br)cc2)cc2c(=O)n3ccccc3nc2n1C1CCCC1 shows activation equal to inactive

The compound listed as COc1cccc(/C=N/NC(=O)c2cc3cc([N+](=O)[O-])ccc3s2)c1O shows activation equal to 26.8% [at 30.8 µM] (inactive)

The compound listed as CC1CCC/C(=C\Nc2ccc(O)cc2)C1=O (configuration not stated) shows activation equal to 3.58% [at 30.8 µM] (inactive)

The compound listed as Cc1ccc(S(=O)(=O)N2[C@@H](c3ccc(C(C)(C)C)cc3)C(C(=O)O)=CC[C@H]2c2cccs2)cc1 shows activation equal to inactive

The compound listed as COc1ccc(S(=O)(=O)N2CCCC2)c2ccccc12 shows activation equal to 9.58% [at 30.8 µM] (inactive)

The compound listed as COc1ccc(C(=O)NCCn2cc(SCC(=O)NCCc3ccc(OC)c(OC)c3)c3ccccc32)cc1 shows activation equal to inactive

The compound listed as O=[N+]([O-])c1ccc(-n2nnnc2-c2ccccc2)c([N+](=O)[O-])c1 shows activation equal to inactive

The compound listed as Cc1ccc(-c2nn3cnnc3c3ccccc23)cc1C shows activation equal to 5.84% [at 30.8 µM] (inactive)

The compound listed as O=C(NCc1ccc(F)cc1)C(c1cccnc1)N(C(=O)c1csnn1)c1ccccc1 (configuration not stated) shows activation equal to 5.08% [at 30.8 µM] (inactive)

The compound listed as O=C(c1ccco1)N1N=C2CCCCCC2C1(O)C(F)(F)F (configuration not stated) shows activation equal to inactive

* * *

# tested on: Rap guanine nucleotide exchange factor 4 (Homo sapiens)
# method summary: Confirmatory qHTS for antagonist of cAMP-regulated guanine nucleotide exchange factor 4 (EPAC2) (AID 1645885); note: nearly all actives have a fitted effect of over 25% in size
# condition set: EPAC2 Rap1B-BODIPY-GDP exchange fluorescence, biochemical; series mostly up to 12.7 µM
Records with an inconclusive call do not appear. Activity calls are given as the source filed them. The call rests on the fitted dose curve; in most records, active means well fitted inhibition curve with a large enough effect; inconclusive means small, poorly fitted or top-dose-only effect; inactive means no such curve, though single readings can be large or run the other way.
Write down the outcome that applies. Available outcomes: active, inactive

Study these solved cases before continuing.
molecule: COC(=O)c1ccc(OCC2c3cc(OC)c(OC)cc3CCN2C(=O)c2ccc(OC)cc2)cc1 (stereo not drawn)
tested on: Rap guanine nucleotide exchange factor 4 (Homo sapiens)
qualitative label: inactive
//
molecule: COc1ccc(Oc2ncc3nc(CCc4ccccc4)c(=O)n(CCC#N)c3n2)cc1
tested on: Rap guanine nucleotide exchange factor 4 (Homo sapiens)
qualitative label: inactive
//
molecule: CC(C)Oc1cc(F)ccc1-c1cc(C(=O)Nc2ccc(C(C)C)cc2)[nH]n1
tested on: Rap guanine nucleotide exchange factor 4 (Homo sapiens)
qualitative label: inactive
//
molecule: O=C(/C=C/c1ccco1)Nc1nc(-c2ccccn2)cs1
tested on: Rap guanine nucleotide exchange factor 4 (Homo sapiens)
qualitative label: inactive
//
molecule: CCOc1nc(C)cc(C)c1S(=O)(=O)c1cccc(Cl)c1
tested on: Rap guanine nucleotide exchange factor 4 (Homo sapiens)
qualitative label: active

What outcome does the record of this test show for Cc1csc(N=Nc2ccc(N(C)C)cc2)[n+]1[O-] ?
active

What outcome does the record of this test show for CCn1c(SCC(=O)c2ccc(O)c(O)c2)nnc1-c1ccccc1OC ?
active

What outcome does the record of this test show for CCN1CCc2c(sc(NC(=O)CSc3ccccc3)c2-c2nc3ccccc3s2)C1 ?
active

What outcome does the record of this test show for N#CC(C(=O)NCc1ccccc1)c1nc2ccccc2nc1N1CCCC1 (stereo not drawn) ?
active

* * *

# tested on: Rap guanine nucleotide exchange factor 3 (Homo sapiens) (UniProt O95398)
# Sequence (O95398 whole entry, looked up): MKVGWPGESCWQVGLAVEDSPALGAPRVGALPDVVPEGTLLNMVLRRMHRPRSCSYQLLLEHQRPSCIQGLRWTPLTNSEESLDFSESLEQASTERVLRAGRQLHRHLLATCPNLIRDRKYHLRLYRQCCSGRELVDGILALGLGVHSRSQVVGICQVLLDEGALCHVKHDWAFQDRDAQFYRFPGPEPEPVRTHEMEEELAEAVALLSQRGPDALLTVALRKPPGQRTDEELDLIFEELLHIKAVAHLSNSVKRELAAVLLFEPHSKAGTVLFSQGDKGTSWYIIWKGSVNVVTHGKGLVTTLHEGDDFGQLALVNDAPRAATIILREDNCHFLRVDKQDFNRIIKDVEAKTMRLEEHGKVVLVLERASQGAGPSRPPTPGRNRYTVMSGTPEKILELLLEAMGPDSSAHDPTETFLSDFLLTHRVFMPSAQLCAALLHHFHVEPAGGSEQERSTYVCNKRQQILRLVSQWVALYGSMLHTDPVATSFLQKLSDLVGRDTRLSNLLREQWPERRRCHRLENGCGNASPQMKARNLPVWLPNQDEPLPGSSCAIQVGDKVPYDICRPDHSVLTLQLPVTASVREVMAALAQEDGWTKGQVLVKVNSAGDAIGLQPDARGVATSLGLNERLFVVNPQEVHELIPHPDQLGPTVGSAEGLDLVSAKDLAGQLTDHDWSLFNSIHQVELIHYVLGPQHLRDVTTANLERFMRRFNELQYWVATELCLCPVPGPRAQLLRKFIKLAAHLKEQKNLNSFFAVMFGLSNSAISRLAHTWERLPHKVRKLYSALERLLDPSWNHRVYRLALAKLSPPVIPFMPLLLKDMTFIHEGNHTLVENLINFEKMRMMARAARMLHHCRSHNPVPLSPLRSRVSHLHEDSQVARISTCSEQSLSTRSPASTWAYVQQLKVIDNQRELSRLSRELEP
# method summary: Counterscreen qHTS for antagonist of cAMP-regulated guanine nucleotide exchange factor 3 (EPAC1) (AID 1645888);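 note: fluorescence loss as bound BODIPY-GDP is released from Rap1B; % of control where 0% means no effect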
# condition set: Rap1B-BODIPY-GDP nucleotide exchange, fluorescence; series mostly up to 154 µM
Inconclusive results are not listed. Calls of active or inactive are those of the source. The call rests on the fitted dose curve; in most records, active means well fitted inhibition curve with a large enough effect; inconclusive means small, poorly fitted or top-dose-only effect; inactive means no such curve, though single readings can be large or run the other way.
parameter measured: activity change, negative = inhibition

A selection of reference data follows.
molecule: Cc1nc2cc(-c3ccsc3-n3c(C)ccc3C)[nH]n2c(=O)c1Cl
activity change, negative = inhibition: inactive

molecule: COC(=O)c1cc2c(N)c(C(=O)c3ccc(Cl)cc3)sc2nc1C(OC)OC
activity change, negative = inhibition: -4.3% [at 30.8 µM] (inactive)

molecule: O=C1/C(=C/C=C/c2ccccc2)Oc2c1ccc(O)c2CN1CCN(CCO)CC1
activity change, negative = inhibition: 31.1% [at 30.8 µM] (inactive)

molecule: O=C(Nc1sc2c(c1C(=O)O)CCCC2)c1ccc(Cl)cc1
activity change, negative = inhibition: -8.59% [at 30.8 µM] (inactive)

molecule: Cc1nc2ccccc2c(=O)n1N(c1ccccc1)c1ccccc1
activity change, negative = inhibition: 9.75% [at 30.8 µM] (inactive)

The molecule listed as O=C(CC1C[C@H](C(=O)N2CCCCC2)[C@@]2(CCc3ccccc3)c3[nH]c4ccccc4c3CCN2C1=O)NCCCn1ccnc1 (stereo not given in full) shows activity change, negative = inhibition equal to inactive

The molecule listed as Cc1[nH][nH]c(=O)c1C(c1c(C)[nH][nH]c1=O)c1cn(Cc2cccc3ccccc23)c2ccccc12 shows activity change, negative = inhibition equal to inactive

The molecule listed as O=C(O)c1[nH]c2ccccc2c1C(c1cccc(O)c1)c1c(C(=O)O)[nH]c2ccccc12 shows activity change, negative = inhibition equal to inactive

The molecule listed as Cc1ccc2oc(=O)n(Cc3ccc(OC(C)C)cc3)c2c1 shows activity change, negative = inhibition equal to inactive

The molecule listed as O=c1c2ccccc2nc(/C=C/c2cccnc2)n1Cc1ccccc1 shows activity change, negative = inhibition equal to -16.6% [at 30.8 µM] (inactive)
